- Tested on: Proteus vulgaris
- method: Antibacterial activity against clinical isolates Proteus vulgaris after 24 hrs by agar diffusion assay
- Type: functional
quantityKind: MIC
Reply with the number and its unit after it.

Input: Give the observed MIC of NC[C@H]1O[C@H](O[C@H]2[C@H](O)[C@@H](O[C@H]3O[C@H](CO)[C@@H](O)[C@H](N)[C@H]3O)[C@H](N)C[C@@H]2N)[C@H](O)[C@@H](O)[C@@H]1O [KANAMYCIN] for Proteus vulgaris.
Output: 5 µg/mL

Input: Give the observed MIC of `Cc1[nH][nH]c(=O)c1[C@@H](c1cccc(O)c1)c1c(O)[nH]c(=O)[nH]c1=O` for Proteus vulgaris.
Output: 100 µg/mL

Input: Give the observed MIC of `Cc1[nH][nH]c(=O)c1[C@@H](c1ccc(Cl)cc1)c1c(O)[nH]c(=S)[nH]c1=O` for Proteus vulgaris.
Output: 100 µg/mL

Input: Give the observed MIC of `Cc1[nH][nH]c(=O)c1[C@@H](c1ccc([N+](=O)[O-])cc1)c1c(O)[nH]c(=O)[nH]c1=O` for Proteus vulgaris.
Output: 100 µg/mL
